# assayedSystem: T1, cynomolgus TNFR2 (Sino 90102-C08H) (cynomolgus, UniProt A0A2K5VET2 132-366)
# T1 construct: also called CynoTNFR2 (His tag)
# T1 sequence: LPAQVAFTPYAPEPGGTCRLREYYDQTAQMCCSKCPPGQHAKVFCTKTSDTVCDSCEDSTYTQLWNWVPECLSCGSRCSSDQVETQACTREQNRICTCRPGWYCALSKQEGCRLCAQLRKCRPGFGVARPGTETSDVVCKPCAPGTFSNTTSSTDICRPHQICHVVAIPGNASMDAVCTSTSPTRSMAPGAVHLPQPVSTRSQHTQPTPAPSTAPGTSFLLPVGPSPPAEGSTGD
# measurementNotes: ELISA, coated antigen 0.5 ug/ml, antibody 28 ng/ml

binder: TNFR2 antibody #219 (antibody, V domains shown) VH: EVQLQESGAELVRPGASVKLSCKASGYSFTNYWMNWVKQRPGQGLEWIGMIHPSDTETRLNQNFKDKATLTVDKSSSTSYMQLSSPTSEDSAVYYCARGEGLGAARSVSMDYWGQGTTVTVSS VL: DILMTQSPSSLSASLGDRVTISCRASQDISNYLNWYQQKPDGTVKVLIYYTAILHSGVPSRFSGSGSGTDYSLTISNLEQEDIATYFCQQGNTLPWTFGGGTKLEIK
ELISA OD: 3.41 OD

binder: TNFR2 antibody #395 (antibody, V domains shown) VH: EVQLQESGPVLVQPSQSLSITCTVSGFSLTSYSVHWVRQSPGKGLEWLGVIWSDGGTDYSAAFISRLSISKDNSKSQVFFKMNSLQADDTAIYYCARNDDGGDYAMDYWGQGTTVTVSS VL: EIVLTQSPALMSASPGEKVTMTCSASSSVSYMYWYQQKPRSSPKPWIYLTSNLASGVPARFSGSGSGTSYSLTISSMEAEDAATYYCQQWSSNPLTFGAGTKLEIK
ELISA OD: 3.15 OD

binder: TNFR2 antibody #125 (antibody, V domains shown) VH: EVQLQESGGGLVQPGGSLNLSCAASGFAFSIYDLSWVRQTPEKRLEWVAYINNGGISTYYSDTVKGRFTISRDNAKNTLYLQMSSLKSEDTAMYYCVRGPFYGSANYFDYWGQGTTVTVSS VL: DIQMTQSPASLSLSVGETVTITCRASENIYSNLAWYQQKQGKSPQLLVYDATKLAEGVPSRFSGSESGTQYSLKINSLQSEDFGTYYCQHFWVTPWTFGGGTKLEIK
ELISA OD: 3.25 OD
